Target: Wistar rat heart PBR (Rattus norvegicus (Rat))
Assay: In vitro potency assay: competition for binding to PBR against 0.3 nM [3H]-PK-11195
Settings: non-radioactive analogues; Wistar rat heart PBR; vs 0.3 nM [3H]-PK-11195; 15 minutes at 25° C.; read-out: Ki
pKi: −log10 of the molar value.
pKi values by entry
measurement-label: pKi

molecule | readout-number
CCN(CC)C(=O)C1Sc2ccccc2-c2c1c1c(OC)cccc1n2CCF (stereo not drawn) | 8.96
CCOc1ccc2c(c1)c1c(n2CCF)-c2ccccc2SC1C(=O)N(CC)CC (stereo not drawn) | 9.28
CCN(CC)C(=O)C1Sc2ccccc2-c2c1c1cc(OC)ccc1n2CCF (racemic) | 9.43

###

Molecular target: Wistar rat heart PBR (Rattus norvegicus (Rat))
Assay: In vitro potency assay: competition for binding to PBR against 0.3 nM [3H]-PK-11195

molecule | Ki, nM
CCN(CC)C(=O)C1Sc2ccccc2-c2c1c1ccccc1n2CC[18F] (stereo not shown) [[^18F]FE-PBR, reference compound] | 0.68
